run.description: Pharmacokinetic study of testosterone transdermal matrix patch in surgically menopausal women: total and free testosterone
Format: in vivo, human
reported.conditions: female, human, serum, other: transdermal patch, 300 mcg/day, 300 mcg/day patch; No ERT, n=19; time-average change from baseline; mean±SEM; read-out: Changes in Free T
Procedure: One group had received no estrogen replacement therapy (ERT) for at least one month, the second group was receiving transdermal estadiol (E2) at a dosage of 0.1 mg/day, and the third group was receiving oral conjugated equine estrogens (CEE) at a dosage of 1.25 mg/day. […] The resultant hormone data (mean±SEM) for the three groups of surgically menopausal women participating in the clinical study is summarized in Table 2 below. […]

| compound | concentration at 3.5 day |
| --- | --- |
| C[C@]12CC[C@H]3[C@@H](CCC4=CC(=O)CC[C@@]43C)[C@@H]1CC[C@@H]2O [testosterone, (17)-17-Hydroxyandrost-4-en-3-one] | 4.6 pg/mL |

---

run.description: Pharmacokinetic study of testosterone transdermal matrix patch in surgically menopausal women: total and free testosterone
Format: in vivo, human
reported.conditions: female, human, serum, po, 300 mcg/day patch; with Oral CEE 1.25 mg/day, n=13; time-average change from baseline; mean±SEM; read-out: Changes in Free T
endpoint.name: concentration at 3.5 day (pg/mL)

| compound | measured.value |
| --- | --- |
| C[C@]12CC[C@H]3[C@@H](CCC4=CC(=O)CC[C@@]43C)[C@@H]1CC[C@@H]2O [testosterone, (17)-17-Hydroxyandrost-4-en-3-one] | 2.56 |

---

run.description: Predicted change in total testosterone, power-law regression of FIG. 1
reported.conditions: human, serum, other: transdermal, 1553 mcg/day

| compound | concentration at 3.5 day |
| --- | --- |
| C[C@]12CC[C@H]3[C@@H](CCC4=CC(=O)CC[C@@]43C)[C@@H]1CC[C@@H]2O [testosterone, (17)-17-Hydroxyandrost-4-en-3-one] | 4.9 ng/mL |

---

run.description: Pharmacokinetic study of testosterone transdermal matrix patch in surgically menopausal women: total and free testosterone
Format: in vivo, human
reported.conditions: female, human, serum, other: transdermal patch, 300 mcg/day patch; with Transdermal E2 0.1 mg/day, n=12; time-average change from baseline; mean±SEM; read-out: Changes in Free T
endpoint.name: concentration at 3.5 day

| compound | endpoint.name | measured.value |
| --- | --- | --- |
| C[C@]12CC[C@H]3[C@@H](CCC4=CC(=O)CC[C@@]43C)[C@@H]1CC[C@@H]2O [testosterone, (17)-17-Hydroxyandrost-4-en-3-one] | concentration at 3.5 day | 4.2 pg/mL |

---

run.description: Predicted change in total testosterone, power-law regression of FIG. 1
reported.conditions: human, serum, other: transdermal, 1313 mcg/day

| compound | unit.symbol | concentration at 3.5 day |
| --- | --- | --- |
| C[C@]12CC[C@H]3[C@@H](CCC4=CC(=O)CC[C@@]43C)[C@@H]1CC[C@@H]2O [testosterone, (17)-17-Hydroxyandrost-4-en-3-one] | ng/mL | 3.68 |

---

run.description: Example 1: serum hormone levels on the regimen
reported.conditions: female, human, in vivo, women with bioavailable testosterone level below 35 ng/dL, Example 1 regimen

| molecule | bioavailability, % |
| --- | --- |
| C[C@]12CC[C@H]3[C@@H](CCC4=CC(=O)CC[C@@]43C)[C@@H]1CC[C@@H]2O [testosterone, (17)-17-Hydroxyandrost-4-en-3-one] | 97 |

---

run.description: Pharmacokinetic study of testosterone transdermal matrix patch in surgically menopausal women: total and free testosterone
Type: in vivo, human
reported.conditions: female, human, serum, other: transdermal patch, 300 mcg/day, 300 mcg/day patch; No ERT, n=19; time-average change from baseline, 3.5 day application; mean±SEM; read-out: Changes in Total T
endpoint.name: concentration at 3.5 day (ng/mL)

| molecule | unit.symbol | measured.value |
| --- | --- | --- |
| C[C@]12CC[C@H]3[C@@H](CCC4=CC(=O)CC[C@@]43C)[C@@H]1CC[C@@H]2O [testosterone, (17)-17-Hydroxyandrost-4-en-3-one] | ng/mL | 0.572 |
